test system: Vibrio cholerae; experiment: growth AUC normalised to DMSO control (fraction of control); higher = less growth inhibition, active = hit call of the paper; conditions: 20 µM
Where a name gives a salt, the structure may show the parent alone.
# binarize growth AUC normalised to DMSO control: threshold 1 inclusive, high side Yes, low side No

compound="COCCOC(=O)C1=C(C)NC(C)=C(C(=O)OC(C)C)C1c1cccc([N+](=O)[O-])c1 (centres undefined)" label_class=No
compound="CN(C)CCCN1c2ccccc2Sc2ccc(Cl)cc21 [Chlorpromazine hydrochloride]" label_class=No
compound=O=C(O)c1ccccc1C(=O)Nc1ccc(S(=O)(=O)Nc2nccs2)cc1 label_class=Yes
compound=c1ccc(CNc2ncnc3nc[nH]c23)cc1 label_class=No
compound="CC(=O)N(O)CCCCCNC(=O)CCC(=O)N(O)CCCCCNC(=O)CCC(=O)N(O)CCCCCN [Deferoxamine mesylate]" label_class=Yes
compound="CCCC1C(=O)N2C(N(C)C)=Nc3ccc(C)cc3N2C1=O (centres undefined)" label_class=No
compound="N[C@H]1CONC1=O [(S,-) Cycloserine]" label_class=Yes
compound="CN(C)CCC=C1c2ccccc2COc2ccccc21 [Doxepin hydrochloride]" label_class=No
compound="CN(C)CCC=C1c2ccccc2CCc2ccccc21 [Amitryptiline hydrochloride]" label_class=No
compound=O=C(N[C@H](CO)[C@H](O)c1ccc([N+](=O)[O-])cc1)C(Cl)Cl label_class=No
compound=CN1C(C(=O)Nc2ccccn2)=C(O)c2ccccc2S1(=O)=O label_class=No
compound="CO[C@@]1(NC(=O)C2SC(=C(C(N)=O)C(=O)O)S2)C(=O)N2C(C(=O)O)=C(CSc3nnnn3C)CS[C@@H]21 (some centres undefined)" label_class=No
compound="CCCCNc1c(C(=O)OCC)c(C)nc2c1cnn2CC [Tracazolate hydrochloride]" label_class=Yes
compound="Clc1ccc(C(Cn2ccnc2)OCc2ccsc2Cl)c(Cl)c1 (centres undefined)" label_class=No
compound="COc1ccc2cc([C@H](C)C(=O)O)ccc2c1 [(S)-Naproxen]" label_class=No
compound="CCOC(=O)[C@H](CCc1ccccc1)N[C@@H](C)C(=O)N1CCC[C@H]1C(=O)O [Enalapril maleate]" label_class=Yes
compound="COc1ccc(C2CNC(=O)C2)cc1OC1CCCC1 (centres undefined)" label_class=No
compound=CC(C)C(=O)c1c(C(C)C)nn2ccccc12 label_class=Yes
compound=CC(=O)OCC(CCn1cnc2cnc(N)nc21)COC(C)=O label_class=Yes
compound=CCOC(=O)[C@H](CCc1ccccc1)N[C@@H](C)C(=O)N1[C@H](C(=O)O)C[C@@H]2CCC[C@@H]21 label_class=Yes
compound="OCCN1CCN(CC/C=C2/c3ccccc3Sc3ccc(Cl)cc32)CC1 [Zuclopenthixol dihydrochloride]" label_class=No
compound="CCCCc1cc2ccccc2c(OCCN(C)C)n1 [Dimethisoquin hydrochloride]" label_class=No
compound="C=CC[N@@+]12CC[C@@]34c5ccccc5N5/C=C6/[C@H]7C[C@H]8[C@@]9(CC[N@@+]8(CC=C)C/C7=C/CO)c7ccccc7N(/C=C(/[C@@H](C[C@@H]31)/C(=C\\CO)C2)[C@H]54)[C@@H]69 [Alcuronium chloride]" label_class=Yes

* * *

test system: P. vulgatus WT; test: growth AUC normalised to DMSO control (median) (fraction of control); higher = less growth inhibition, active = hit call of the paper; details: 20 µM;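 note: active when median AUC fell below 0.1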
Structures can show the parent of a compound that is named as a salt.
Outcome codes: yes (1) = active, no (0) = inactive

molecule="CCN1CCN(C(=O)N[C@@H](C(=O)N[C@@H]2C(=O)N3C(C(=O)O)=C(CSc4nnnn4C)CS[C@H]23)c2ccc(O)cc2)C(=O)C1=O [Cefoperazone dihydrate]" label_class="yes (1)"
molecule="CC[C@H](C)[C@H](NC(=O)[C@H](Cc1ccc(O)cc1)NC(=O)[C@@H](NC(=O)[C@H](CCCN=C(N)N)NC(=O)[C@@H](N)CC(=O)O)C(C)C)C(=O)N[C@@H](Cc1cnc[nH]1)C(=O)N1CCC[C@H]1C(=O)N[C@@H](Cc1ccccc1)C(=O)O [Angiotensin II (Human) Trifluoroacetic acid salt]" label_class="no (0)"
molecule="COc1cc(N)c(Cl)cc1C(=O)NC1CCN(Cc2ccccc2)CC1 [Clebopride maleate]" label_class="no (0)"
molecule="N=C(N)NC(=O)Cc1c(Cl)cccc1Cl [Guanfacine hydrochloride]" label_class="no (0)"

These data points were gathered from the supplement of paper PMC12350171.
